Provenance of the data: paper PMC7756341

SYSTEM: CERT (Homo sapiens)
Construct: made in house; host or cells: E. coli BL21 (DE3), pET-28a(+)
Sequence (Q9Y5P4 1-598 isoform Q9Y5P4-2): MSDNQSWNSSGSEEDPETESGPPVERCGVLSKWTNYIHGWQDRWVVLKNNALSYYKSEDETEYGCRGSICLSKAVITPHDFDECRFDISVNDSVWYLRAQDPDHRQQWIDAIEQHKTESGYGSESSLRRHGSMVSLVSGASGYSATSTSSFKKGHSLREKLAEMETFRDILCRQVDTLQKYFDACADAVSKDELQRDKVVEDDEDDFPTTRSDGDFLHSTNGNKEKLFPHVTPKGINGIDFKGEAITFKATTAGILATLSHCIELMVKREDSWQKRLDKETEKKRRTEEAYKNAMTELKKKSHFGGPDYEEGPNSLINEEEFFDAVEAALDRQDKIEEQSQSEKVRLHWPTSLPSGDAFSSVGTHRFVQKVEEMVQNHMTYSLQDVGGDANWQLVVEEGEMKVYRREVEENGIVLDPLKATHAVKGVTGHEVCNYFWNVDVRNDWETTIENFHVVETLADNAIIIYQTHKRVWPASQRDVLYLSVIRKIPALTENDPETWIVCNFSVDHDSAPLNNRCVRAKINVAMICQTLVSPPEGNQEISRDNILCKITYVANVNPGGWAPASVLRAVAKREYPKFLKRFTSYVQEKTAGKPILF
TEST NAME: NR-ceramide fluorescence competition assay
Type: binding
CONDITION NOTES: 1 μM Nile red ceramide
RESULT TYPE: activity in the NR ceramide competition assay

1. CCCC(=O)OCOC(=O)C1=C(C)NC(C)=C(C(=O)OC)C1c1cccc(Cl)c1Cl (stereo not drawn) [6B11, Clevidipine butyrate]
high activity
2. Cc1cc(C2=NOC(c3cc(Cl)cc(Cl)c3)(C(F)(F)F)C2)ccc1C(=O)NCC(=O)NCC(F)(F)F (stereo not drawn) [20D5, Fluralaner]
high activity
3. O=C(NC1CCN(CCCCC2(C(=O)NCC(F)(F)F)c3ccccc3-c3ccccc32)CC1)c1ccccc1-c1ccc(C(F)(F)F)cc1 [8E8, lomitapide]
high activity
